assay system: UniProt Q8NER1
Sequence (Q8NER1 whole entry): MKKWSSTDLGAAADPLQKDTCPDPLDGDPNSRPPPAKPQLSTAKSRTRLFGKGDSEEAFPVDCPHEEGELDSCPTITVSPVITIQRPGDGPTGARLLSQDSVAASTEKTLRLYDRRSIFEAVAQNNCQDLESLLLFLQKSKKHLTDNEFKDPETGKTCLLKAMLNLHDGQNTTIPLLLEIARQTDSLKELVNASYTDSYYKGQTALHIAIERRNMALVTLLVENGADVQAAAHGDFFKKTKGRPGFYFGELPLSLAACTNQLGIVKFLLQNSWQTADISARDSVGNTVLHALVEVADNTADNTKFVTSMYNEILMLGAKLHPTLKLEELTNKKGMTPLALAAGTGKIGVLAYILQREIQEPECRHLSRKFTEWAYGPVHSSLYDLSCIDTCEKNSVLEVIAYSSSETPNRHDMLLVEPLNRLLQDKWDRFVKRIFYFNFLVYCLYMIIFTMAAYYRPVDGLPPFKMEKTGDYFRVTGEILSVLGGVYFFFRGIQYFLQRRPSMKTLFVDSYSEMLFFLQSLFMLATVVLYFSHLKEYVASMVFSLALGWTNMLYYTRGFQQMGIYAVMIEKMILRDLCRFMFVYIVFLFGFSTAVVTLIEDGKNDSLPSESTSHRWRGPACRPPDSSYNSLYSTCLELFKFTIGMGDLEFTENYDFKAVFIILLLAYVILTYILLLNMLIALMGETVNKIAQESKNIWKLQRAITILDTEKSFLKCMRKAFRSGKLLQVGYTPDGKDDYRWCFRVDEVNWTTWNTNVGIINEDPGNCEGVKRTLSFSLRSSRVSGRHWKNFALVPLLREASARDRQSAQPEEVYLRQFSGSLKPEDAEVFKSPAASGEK
method description: Human VR1 (hVR1) Functional Assay (FLIPR intracellular calcium, capsaicin challenge)
condition notes: capsaicin 0.030 μM; HEK293 cells expressing hVR1
measurement label: IC50 (µM)
Provide only the numeric value, understood in µM.

Worked set:
{"columns": ["compound", "reading unit", "quantitative result"],
 "data": [
  ["CC(C)(O)c1ccccc1-c1ccc2[nH]c(/C=C/c3ccc(S(C)(=O)=O)cc3)nc2c1 [Cpd 84]", "µM", 0.04],
  ["CCOc1ccc(/C=C/c2nc3cc(-c4ccccc4S(N)(=O)=O)ccc3[nH]2)cc1 [Cpd 440]", "µM", 0.04],
  ["NS(=O)(=O)c1ccccc1-c1ccc2[nH]c(CCc3cccc(F)c3F)nc2c1 [Cpd 394]", "µM", 0.006]
]}

Now examine the next entry.
Give the measured IC50 of CC(=O)Nc1ccccc1-c1ccc2[nH]c(/C=C/c3ccc(S(=O)(=O)C(F)(F)F)cc3)nc2c1 [Cpd 43] .
0.89
